system: T1, Abp1, P15891
T1 sequence (P15891 535-592, looked up): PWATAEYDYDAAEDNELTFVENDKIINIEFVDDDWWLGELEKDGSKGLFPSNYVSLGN
assayInfo: SPOT array
conditionInfo: median of control spots 935
attributeMeasured: SPOT intensity

Worked cases, SPOT intensity given:
[[record]]
binder = "LSKRLPLRFPEHTSS"
attributemeasured = "SPOT intensity"
numericresult = 22

[[record]]
binder = "NFKRLLPRDPSEKSS"
attributemeasured = "SPOT intensity"
numericresult = 41

[[record]]
binder = "YHSRRHPLALGFKYV"
attributemeasured = "SPOT intensity"
numericresult = 0

[[record]]
binder = "VPKEPAPAPPPEPDM"
attributemeasured = "SPOT intensity"
numericresult = 0

[[record]]
binder = "KMSRSPPRPPSLKII"
attributemeasured = "SPOT intensity"
numericresult = 326

[[record]]
binder = "APPPPPRRATPEKKP"
attributemeasured = "SPOT intensity"
numericresult = 77

[[record]]
binder = "ALFRLSFFFPLDPAY"
attributemeasured = "SPOT intensity"
numericresult = 142

[[record]]
binder = "NLPKRKPPKLQGPFS"
attributemeasured = "SPOT intensity"
numericresult = 202

[[record]]
binder = "DHPKGPPPPPPPDEK"
attributemeasured = "SPOT intensity"
numericresult = 0

[[record]]
binder = "EEEEEHPPLPARRKS"
attributemeasured = "SPOT intensity"
numericresult = 0


[1] GKKVRPLLVLLLSRA
[2] NPNRRAPRRPLSTQH
When their SPOT intensity values are compared, which is larger, 1 or 2 ? Give the label of your selection. 2
(2: 151, 1: 37)

[1] TSFKGRPKPPKTLKH
[2] AAHKTKPSIPPKKVE
[3] VPPPMQPPPIESSNL
[4] DKKTKPTPPPKPSHL
[5] QPQRTAPKPPISAPR
Ordering criterion: SPOT intensity; begin with the maximum. Form entry: labels listed in requested order. 4, 2, 1, 3, 5
(4: 410, 2: 239, 1: 128, 3: 85, 5: 42)

[A] NIKVLLNPKLGKPVK
[B] NHSRSLFSLPGNQQS
[C] HKVLRPFLLRRLKKD
[D] VQQDSLPKLPFRSWG
[E] TKPTPPPKPSHLKPK
// smallest SPOT intensity at index 0, largest at the end // ordering of labels required in reply D, C, B, A, E
(D: 0, C: 34, B: 53, A: 93, E: 631)

[a] LRIKRKPVQTFFEFI
[b] SRQAIPPPVPNRPGG
[c] RNNRPVPPPPPMRTT
[d] YRRKSIPFAPHQITA
Rank items: key SPOT intensity, increasing. Reply with the item labels sorted in the order that was asked for. c, d, b, a

[P] EQEEIAPSLPSRNSI
[Q] RSKRLFPVRPMATAH
Please let me know which one, P or Q , has a lower measured SPOT intensity value. Respond with the label that goes with your answer. P

[I] RRARRQMGIPTISQV
[II] SSSSSPPPLPTRRDH
Identify the entry with the smaller SPOT intensity: I or II . State your choice using its label. II
